Ref: patent US20170202936A1

Molecular target: T1, HLA-B*0702 (human)
T1 construct: MHC class I molecule on T2-B7 cells; also called HLA-B7
Experiment: T2-B7 cells, HLA-B*0702 surface expression (ME-1 mAb); ratio to reference peptide CMV265-274 (SEQ ID NO: 9)
test.readout: RA (relative affinity) (ratio)
Provide the reading as a plain figure in ratio.

>  <binder>
APRCRAVRSL [TERT4]

>  <assay.result>
0.74

$$$$

Consider the record given below.
Incoming: Report RA (relative affinity) for APRRLVQLL (TERT444 with A at position 1) [TERT444A1] please.
Outgoing: 1.4
